- Tgt: T1, human tissue factor pathway inhibitor (TFPI) (human, UniProt P10646 29-304, limits assumed)
- T1 construct: bought; also called hTFPI; human TFPI
- T1 sequence (looked up): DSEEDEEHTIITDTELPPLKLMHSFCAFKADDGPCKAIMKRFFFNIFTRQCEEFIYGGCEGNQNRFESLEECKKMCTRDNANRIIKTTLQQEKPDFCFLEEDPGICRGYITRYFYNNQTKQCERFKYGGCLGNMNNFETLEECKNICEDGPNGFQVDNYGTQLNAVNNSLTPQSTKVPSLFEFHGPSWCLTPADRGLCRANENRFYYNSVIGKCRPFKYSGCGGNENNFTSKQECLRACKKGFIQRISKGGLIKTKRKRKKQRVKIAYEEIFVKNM
- Test details: SPR, TFPI immobilized
pKd values for the binders below.
Scale for pKd: -log10 of concentration given in mol/L; no unit attached.

# count of solved cases: 2
Binder	pKd
2A8 LC_A32N (Fab, V domains shown, also called 2A8-11) VH: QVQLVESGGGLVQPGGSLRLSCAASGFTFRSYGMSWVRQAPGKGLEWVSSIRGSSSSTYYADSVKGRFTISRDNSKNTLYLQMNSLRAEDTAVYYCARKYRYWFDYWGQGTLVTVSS VL: DIELTQPPSVSVAPGQTARISCSGDNLRNYYNHWYQQKPGQAPVVVIYYDNNRPSGIPERFSGSNSGNTATLTISGTQAEDEADYYCQSWDDGVPVFGGGTKLTVLG	8.82
2A8 HC_K99L (Fab, V domains shown, also called 2A8-9) VH: QVQLVESGGGLVQPGGSLRLSCAASGFTFRSYGMSWVRQAPGKGLEWVSSIRGSSSSTYYADSVKGRFTISRDNSKNTLYLQMNSLRAEDTAVYYCARLYRYWFDYWGQGTLVTVSS VL: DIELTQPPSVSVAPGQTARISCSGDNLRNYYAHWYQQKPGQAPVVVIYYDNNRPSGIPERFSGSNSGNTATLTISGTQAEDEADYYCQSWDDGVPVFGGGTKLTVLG	9.51

Task: Name the recorded pKd of the binder listed here: 2A8 HC_I51E (Fab, V domains shown, also called 2A8-6) VH: QVQLVESGGGLVQPGGSLRLSCAASGFTFRSYGMSWVRQAPGKGLEWVSSERGSSSSTYYADSVKGRFTISRDNSKNTLYLQMNSLRAEDTAVYYCARKYRYWFDYWGQGTLVTVSS VL: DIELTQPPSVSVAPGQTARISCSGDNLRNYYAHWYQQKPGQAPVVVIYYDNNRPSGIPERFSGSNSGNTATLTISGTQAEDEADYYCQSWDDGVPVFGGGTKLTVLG
Output: 8.90
